# MEASUREMENT_NOTES: Quantitative High-Throughput drug screen in 47 multiple myeloma cell lines against the NCATS MIPE library collection: JIM3_ECACC cell viability assay (AID 1918963; note: nearly all actives have a fitted effect of over 35% in size)
# MEASUREMENT_CONDITIONS: JIM3 myeloma viability, CellTiter-Glo ATP, 48 h; series mostly up to 45.8 µM
Records with an inconclusive call do not appear. Calls of active or inactive are those of the source. Calls come from the whole dose curve; as a rule, active = well fitted cell-killing curve with a large enough effect; inconclusive = small, poorly fitted or top-dose-only effect; inactive = no such curve, though single readings can be large or run the other way.
Just give me one of these, please: Y for active, N for inactive

Per the records of this test, what outcome belongs to CC1COC2(CCN(c3nc(=O)c4cc(C(F)(F)F)cc([N+](=O)[O-])c4s3)CC2)O1 (stereo not given) ?
N

Per the records of this test, what outcome belongs to Nc1cccc(-c2cc3c(Oc4cccc(O)c4)ncnc3[nH]2)c1 ?
Y

Per the records of this test, what outcome belongs to COc1ccc(C(=O)CC2(O)C(=O)Nc3c(Cl)ccc(Cl)c32)cc1 (stereo not given) ?
Y

Per the records of this test, what outcome belongs to CCCCCN(CCC12CC3CC(CC(C3)C1)C2)C(=O)NCCCc1ccncc1 ?
Y

Per the records of this test, what outcome belongs to N#CCNC(=O)c1ccc(-c2ccnc(Nc3ccc(N4CCOCC4)cc3)n2)cc1 ?
Y

====

# System: MKL-2
# MEASUREMENT_NOTES: qHTS assay to identify novel small-molecules to repurpose for Merkel cell carcinoma treatment (AID 1296009); note: nearly all actives have a fitted effect of over 60% in size
# MEASUREMENT_CONDITIONS: MCC and control cell lines, CellTiter-Glo viability, 72 h; series mostly up to 46 µM
Inconclusive results are not listed. Active and inactive are the calls of the source. Calls follow the shape of the dose curve; as a rule, active = well fitted inhibition curve with a large enough effect; inconclusive = small, poorly fitted or top-dose-only effect; inactive = flat fitted curve, though single readings scatter.
Just give me one of these, please: active, inactive

Per the records of this test, what outcome belongs to Cc1ccc(-c2ncn(-c3ccc(Nc4nccc(-c5cccc(N6CCOCC6)c5)n4)cc3)n2)cn1 ?
active

Per the records of this test, what outcome belongs to CN1CCN(c2cc(C(=O)Nc3ccc4c(c3)-c3c(c(C(N)=O)nn3-c3ccc(F)cc3)CC4)c(Cl)cn2)CC1 ?
active

Per the records of this test, what outcome belongs to COc1cc2ncnc(Nc3ccc(F)c(Cl)c3)c2cc1NC(=O)C=CCN1CCCCC1 ?
active

Per the records of this test, what outcome belongs to CC[C@@H]1C(=O)N(C)c2cnc(Nc3ccc(C(=O)NC4CCC(N5CCN(CC6CC6)CC5)CC4)cc3OC)nc2N1C(C)C (stereo partly drawn) ?
active

Per the records of this test, what outcome belongs to C#Cc1cccc(Nc2ncnc3cc(OC)c(OCCCCCCC(=O)NO)cc23)c1 ?
active

Per the records of this test, what outcome belongs to C[C@@]12O[C@@H](C[C@]1(O)CO)n1c3ccccc3c3c4c(c5c6ccccc6n2c5c31)CNC4=O ?
active

Per the records of this test, what outcome belongs to Clc1cccc(-n2nnnc2NCc2ccccc2Oc2ccccn2)c1Cl ?
inactive

Per the records of this test, what outcome belongs to Nc1nc(NCCNc2ncc(-n3ccnc3)c(-c3ccc(Cl)cc3Cl)n2)ccc1[N+](=O)[O-] ?
inactive

====

# MEASUREMENT_NOTES: qHTS of pediatric cancer cell lines to identify multiple opportunities for drug repurposing: Primary screen for BT-12 cells (AID 1347101); note: nearly all actives have a fitted effect of over 25% in size; note: potency is the fitted concentration of half-maximal effect
# MEASUREMENT_CONDITIONS: BT-12 viability, CellTiter-Glo luminescence, 48 h; series mostly up to 57.3 µM
Results filed as inconclusive are left out. Active and inactive are the calls of the source. The call rests on the fitted dose curve; in most records, active means well fitted cell-killing curve with a large enough effect; inconclusive means small, poorly fitted or top-dose-only effect; inactive means flat fitted curve, though single readings scatter.
MEASURED_PARAMETER: Potency

In the examples that follow, each entry is paired with its recorded Potency.
- MOLECULE: "COc1cc2ncn(-c3cc(OCc4ccccc4C(F)(F)F)c(C(N)=O)s3)c2cc1OC"
  Potency: "21.7 µM (active)"
- MOLECULE: "CC(C)c1ccccc1Cc1cc(C(=O)Nc2ccc(S(=O)(=O)c3ccccc3C(C)(C)C)cc2)c(O)c(O)c1O"
  Potency: "21.7 µM (active)"
- MOLECULE: "COCCOc1ccc2c(c1)ncn2-c1ccc2cccc(N3CCC(N)CC3)c2n1"
  Potency: "27.3 µM (active)"
- MOLECULE: "COc1cc2ncnc(Nc3ccc(F)c(Cl)c3)c2cc1NC(=O)C=CCN1CCCCC1"
  Potency: "24.3 µM (active)"

Read the entry COc1cccc2c(NCc3ccccc3)nc(-n3c(N)nc4ccccc43)nc12 and write its reported Potency.
10.9 µM (active)

Read the entry CC(C)c1nn(-c2c(Cl)cccc2Cl)c2nc(Cc3ccc(OCCO)cc3)[nH]c(=O)c12 and write its reported Potency.
0.0544 µM (active)

Read the entry c1ccc2c(CCNc3ccc(Nc4ccncc4)cc3)c[nH]c2c1 and write its reported Potency.
21.7 µM (active)

Read the entry O=C(O)CO.[NH2-].[NH2-].[Pt+2] and write its reported Potency.
inactive

Read the entry COc1ccc(F)c(F)c1C(=O)c1cnc(NC2CCN(S(C)(=O)=O)CC2)nc1N and write its reported Potency.
3.43 µM (active)

Read the entry O=C(O)Cn1nnc(-c2cc(N3CCC(Oc4cc(F)ccc4Br)CC3)no2)n1 and write its reported Potency.
inactive

Read the entry CNC(=O)c1cc(Oc2ccc(NC(=O)Nc3cc(C(C)(C)C)nn3-c3ccc4ncccc4c3)c(F)c2)ccn1 and write its reported Potency.
24.3 µM (active)

Read the entry Cc1ccc(C(N)=O)cc1Nc1nccc(-c2cn(C(C)C)c3cnccc23)n1 and write its reported Potency.
6.85 µM (active)

Read the entry CC(C)Nc1cc(C(F)(F)F)cc2nc(NC(=O)c3cccnc3)nn12 and write its reported Potency.
inactive

Read the entry Cc1cc(Nc2ncnc3ccc(-c4ccc(CNCCS(C)(=O)=O)o4)cc23)ccc1Oc1ccn2ncnc2c1 and write its reported Potency.
6.85 µM (active)

Read the entry Nc1ncnc2c1c(-c1cnc3[nH]ccc3c1)nn2C1CCCC1 and write its reported Potency.
1.37 µM (active)

Read the entry O=C(Nc1nc2cccc(-c3ccc(CN4CCS(=O)(=O)CC4)cc3)n2n1)C1CC1 and write its reported Potency.
27.3 µM (active)

Read the entry COc1cc2c(Oc3ccc(-c4cnc(Nc5ccc(F)cc5)n(C)c4=O)cc3F)ccnc2cc1OCCCN1CCOCC1 and write its reported Potency.
21.7 µM (active)

Read the entry C=CC(=O)Nc1cccc(Oc2nc(Nc3ccc(N4CCN(C)CC4)cc3OC)ncc2Cl)c1 and write its reported Potency.
34.3 µM (active)

Read the entry Cc1cc(Nc2nc(N[C@@H](C)c3ccc(F)cc3)c(C#N)cc2F)n[nH]1 and write its reported Potency.
inactive

Read the entry CN1c2cc(O)c(N=NC(N)=O)cc2CC1S(=O)(=O)O (stereo not given) and write its reported Potency.
inactive

====

For each record, write down the corresponding remaining proliferation (% of control), lower = more inhibition.
# MEASUREMENT_NOTES: qHTS profiling for inhibitors of Plasmodium falciparum (HB3) proliferation (AID 743324);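 note: 100% = DMSO vehicle wells and 0% = artemisinin-treated control wells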
# MEASUREMENT_CONDITIONS: Plasmodium falciparum HB3 blood-stage proliferation; at 28.7 µM (top of the series)
// return numeric value only (unit: %, not printed)

Read the entry COc1cc2ncn(-c3cc(OCc4ccccc4C(F)(F)F)c(C(N)=O)s3)c2cc1OC and write its reported remaining proliferation (% of control), lower = more inhibition.
13

Read the entry CC(=O)Nc1sc2c(c1-c1nc3ccccc3s1)CNC2 and write its reported remaining proliferation (% of control), lower = more inhibition.
74.7

Read the entry Nc1nccc(Oc2ccc(NC(=O)c3c[nH]cc(-c4ccc(F)cc4)c3=O)cc2F)c1Cl and write its reported remaining proliferation (% of control), lower = more inhibition.
1.21

Read the entry CC(C)c1ccccc1Cc1cc(C(=O)Nc2ccc(S(=O)(=O)c3ccccc3C(C)(C)C)cc2)c(O)c(O)c1O and write its reported remaining proliferation (% of control), lower = more inhibition.
-0.184

Read the entry O=C(C=Cc1cccnc1)NCCCCC1CCN(C(=O)c2ccccc2)CC1 and write its reported remaining proliferation (% of control), lower = more inhibition.
46.3

Read the entry Cc1ccc(C(N)=O)cc1Nc1nccc(-c2cn(C(C)C)c3cnccc23)n1 and write its reported remaining proliferation (% of control), lower = more inhibition.
-1.54

Read the entry C[C@@H](Oc1cc(-n2cnc3ccc(CN4CCN(C)CC4)cc32)sc1C(N)=O)c1ccccc1C(F)(F)F and write its reported remaining proliferation (% of control), lower = more inhibition.
1.38

Read the entry CC(C)(C)OC(=O)Nc1ccc(-c2cc(C(=O)NCCCCCCC(=O)NO)no2)cc1 and write its reported remaining proliferation (% of control), lower = more inhibition.
0.579

Read the entry CCN(CC)CCCCNc1ncc2cc(-c3cc(OC)cc(OC)c3)c(NC(=O)NC(C)(C)C)nc2n1 and write its reported remaining proliferation (% of control), lower = more inhibition.
0.178

Read the entry Nc1cc(C(F)(F)F)c(-c2cc(N3CCOCC3)nc(N3CCOCC3)n2)cn1 and write its reported remaining proliferation (% of control), lower = more inhibition.
58.8

Read the entry CCN1CCN(Cc2ccc(-c3cc4c(N[C@H](C)c5ccccc5)ncnc4[nH]3)cc2)CC1 and write its reported remaining proliferation (% of control), lower = more inhibition.
0.0196

Read the entry CC1=C(CO)C(=O)O[C@@H]([C@@H](C)[C@H]2CC[C@H]3[C@@H]4C[C@H]5O[C@]56[C@@H](O)C=CC(=O)[C@]6(C)[C@@H]4CC[C@]23C)C1 and write its reported remaining proliferation (% of control), lower = more inhibition.
-0.146

Read the entry O=C(O)c1ccc2c(c1)nc(Nc1cccc(Cl)c1)c1ccncc12 and write its reported remaining proliferation (% of control), lower = more inhibition.
-0.0167

Read the entry Cc1[nH]c2ccccc2c1CCNCc1ccc(C=CC(=O)NO)cc1 and write its reported remaining proliferation (% of control), lower = more inhibition.
-0.887

Read the entry Cn1cncc1[C@@](N)(c1ccc(Cl)cc1)c1ccc2c(c1)c(-c1cccc(Cl)c1)cc(=O)n2C and write its reported remaining proliferation (% of control), lower = more inhibition.
1.12

Read the entry O=c1[nH]nc(Sc2ncc([N+](=O)[O-])s2)n1-c1ccc2c(c1)OCCO2 and write its reported remaining proliferation (% of control), lower = more inhibition.
3.82

Read the entry c1ccc2c(CCNc3ccc(Nc4ccncc4)cc3)c[nH]c2c1 and write its reported remaining proliferation (% of control), lower = more inhibition.
-0.777

Read the entry COC(=O)c1ccc2c(C(=Nc3ccc(N(C)C(=O)CN4CCN(C)CC4)cc3)c3ccccc3)c(O)[nH]c2c1 and write its reported remaining proliferation (% of control), lower = more inhibition.
0.135

Read the entry Cc1ccc(C(=O)Nc2cccc(C(F)(F)F)c2)cc1-c1ccc2nc(NCCN3CCOCC3)ncc2c1 and write its reported remaining proliferation (% of control), lower = more inhibition.
-1.12
